# System: RAW264.7
# ASSAY METHOD TEXT: Inhibition of LPS-induced nitric oxide production in mouse RAW264.7 cells after 20 hrs by Griess assay
# Assay type: functional, cell-based
# MEASUREMENT PARAMETERS: RAW264.7, 20 h
MEASUREMENT NAME: pIC50
Bear in mind: pIC50 is minus log10 of a mol/L concentration; give just that figure.

Incoming: Give the reported value of pIC50 for this record: Cc1ccc2c(c1)/C(=C/C(C)C)C=C2CO
Outgoing: 4.64

Incoming: Give the reported value of pIC50 for this record: Cc1ccc2c(c1)/C(=C/C(C)C)C[C@]2(O)CO
Outgoing: 4.72
